Listed next: entries and their corresponding pIC50.
# measured-target: Sodium-dependent dopamine transporter (Rattus norvegicus)
# Sequence (P23977 whole entry): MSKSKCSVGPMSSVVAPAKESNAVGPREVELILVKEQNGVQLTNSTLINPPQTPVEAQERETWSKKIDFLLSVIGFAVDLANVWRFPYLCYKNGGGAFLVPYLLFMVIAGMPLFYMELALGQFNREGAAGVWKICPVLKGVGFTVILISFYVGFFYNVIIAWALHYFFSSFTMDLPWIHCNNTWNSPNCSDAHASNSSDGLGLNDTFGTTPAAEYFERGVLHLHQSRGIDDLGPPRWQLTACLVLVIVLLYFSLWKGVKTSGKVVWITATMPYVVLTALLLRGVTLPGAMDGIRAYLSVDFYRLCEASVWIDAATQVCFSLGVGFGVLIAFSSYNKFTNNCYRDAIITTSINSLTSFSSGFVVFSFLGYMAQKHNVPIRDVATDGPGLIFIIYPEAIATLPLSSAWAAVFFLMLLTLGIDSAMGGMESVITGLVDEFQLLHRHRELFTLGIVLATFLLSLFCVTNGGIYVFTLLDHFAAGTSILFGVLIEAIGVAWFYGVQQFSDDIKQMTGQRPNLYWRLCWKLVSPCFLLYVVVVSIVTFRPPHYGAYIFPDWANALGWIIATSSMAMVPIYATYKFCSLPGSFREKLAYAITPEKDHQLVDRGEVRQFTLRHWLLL
# method: Binding affinity at the Dopamine transporter in rat striata by inhibition of 0.5 nM [3H]WIN-35428 binding
# reply with the number alone; pIC50 is -log10 of concentration in mol/L

The following compounds have reported results that may help.
CCN(CC)C(=O)C1C(c2ccc(Cl)cc2)CC2CCC1N2C (centres undefined) : 8.26
CCOC(=O)C1C(OC(=O)c2ccccc2)CC2CCC1N2C (centres undefined) : 6.71
Cc1ccc(C2CC3CCC(C2C(=O)OC2CCC2)N3C)cc1 (centres undefined) : 8.43

Sample CC(C)OC(=O)C1C(c2ccc(I)cc2)CC2CCC1N2C (centres undefined) — what was its pIC50?
9.37

Same again, this time with Cc1ccc(C2CC3CCC(C2C(=O)OC2CCCC2)N3C)cc1 (centres undefined)
7.75

Same again, this time with CN1C2CCC1C(C(=O)N1CCCCC1)C(c1ccc(Cl)cc1)C2 (centres undefined)
8.16

Same again, this time with Cc1ccccc1OC(=O)C1C(c2ccc(Cl)cc2)CC2CCC1N2C (centres undefined)
8.41

Same again, this time with CN1C2CCC1C(C(N)=O)C(c1ccc(Cl)cc1)C2 (centres undefined)
7.94

Same again, this time with CN1C2CCC1C(C(=O)NCO)C(c1ccc(Cl)cc1)C2 (centres undefined)
8.69
